# measured_on: human α2C receptor (Homo sapiens, UniProt P18825)
# Construct: expressed in transfected cells; host or cells: HEK 293
# Sequence (P18825 1-462): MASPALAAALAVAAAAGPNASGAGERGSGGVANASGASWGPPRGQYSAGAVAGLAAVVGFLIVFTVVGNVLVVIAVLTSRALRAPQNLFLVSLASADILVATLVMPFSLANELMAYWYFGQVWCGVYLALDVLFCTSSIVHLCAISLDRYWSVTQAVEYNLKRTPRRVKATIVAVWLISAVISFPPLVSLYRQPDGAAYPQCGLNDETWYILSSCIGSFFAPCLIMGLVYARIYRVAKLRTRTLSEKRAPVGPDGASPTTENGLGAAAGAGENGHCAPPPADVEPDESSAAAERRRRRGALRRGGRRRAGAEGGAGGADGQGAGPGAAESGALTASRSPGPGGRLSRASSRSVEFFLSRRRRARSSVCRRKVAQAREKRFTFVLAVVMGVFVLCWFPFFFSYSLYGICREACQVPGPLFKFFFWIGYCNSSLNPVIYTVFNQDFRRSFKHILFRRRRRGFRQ
# run_description: FLIPR Ca+2 influx assay, α2C
# Format: cell-based
# condition_info: relative efficacy compared to standard full agonist norepinephrine; HEK 293, human α2C/Gqi5
readout_kind: Relative efficacy FLIPR α2C
Please state the value as a number alone, without comment.

Inquiry: Item under review: CCN(Cc1ccccn1)C1CCc2cccc(O)c2C1 (centres unmarked) . Reported Relative efficacy FLIPR α2C?
Reply text: 0

Inquiry: Item under review: CCCN(Cc1ccccn1)C1CCc2cccc(OC)c2C1 (centres unmarked) . Reported Relative efficacy FLIPR α2C?
Reply text: 0

Inquiry: Item under review: CCN(Cc1ccncc1)C1CCc2cccc(O)c2C1 (centres unmarked) . Reported Relative efficacy FLIPR α2C?
Reply text: 0.17

Inquiry: Item under review: CCN(Cc1ccccn1)C1CCc2cccc(OC)c2C1 (centres unmarked) . Reported Relative efficacy FLIPR α2C?
Reply text: 0

Inquiry: Item under review: CCN(Cc1cccnc1)C1CCc2cccc(OC)c2C1 (centres unmarked) . Reported Relative efficacy FLIPR α2C?
Reply text: 0.52

Inquiry: Item under review: "CCCN(Cc1ccncc1)[C@@H]1CCc2cccc(O)c2C1" . Reported Relative efficacy FLIPR α2C?
Reply text: 0

Inquiry: Item under review: CCN(Cc1ccncc1)C1CCc2cccc(OC)c2C1 (centres unmarked) . Reported Relative efficacy FLIPR α2C?
Reply text: 0.72

Inquiry: Item under review: CCCN(Cc1ccccn1)C1CCc2cccc(O)c2C1 (centres unmarked) [drawing 21] . Reported Relative efficacy FLIPR α2C?
Reply text: 0

Inquiry: Item under review: CCCN(Cc1ccccn1)C1CCc2cccc(O)c2C1 (centres unmarked) [drawing 20] . Reported Relative efficacy FLIPR α2C?
Reply text: 0

Inquiry: Item under review: "CCCN(Cc1ccncc1)[C@@H]1CCc2cccc(OC)c2C1" . Reported Relative efficacy FLIPR α2C?
Reply text: 0.67

Inquiry: Item under review: CCCN(Cc1ccncc1)C1CCc2cccc(OC)c2C1 (centres unmarked) . Reported Relative efficacy FLIPR α2C?
Reply text: 0.69
